- Study Target: T1, CTNI quality control recombinant protein (PK2-CTNI-1, 170120, produced by the applicant) (human, UniProt P19429 2-210, limits assumed)
- T1 construct: also called cardiac troponin I
- T1 sequence (P19429 2-210 limits assumed): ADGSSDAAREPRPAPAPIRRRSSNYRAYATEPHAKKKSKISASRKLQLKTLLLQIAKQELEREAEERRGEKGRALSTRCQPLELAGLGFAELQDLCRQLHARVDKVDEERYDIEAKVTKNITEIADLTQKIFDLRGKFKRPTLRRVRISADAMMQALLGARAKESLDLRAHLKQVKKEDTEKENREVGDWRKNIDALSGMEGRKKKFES
- Procedure Details: AMC sensor kinetics, antibody captured, cTnI analyte
Readout Name: kon (M⁻¹ s⁻¹)
Report the figure in M⁻¹ s⁻¹ without appending any unit label.

Solved entries:
binder="Mutation 1-10 (antibody, V domains shown, built as for Mutation 1) VH: EVQLQQSGAELVKPGASVKLSCTASGFNIKDYFMHWMKQRTEQGLDWIGRIDPEDAETRYAPEFQGKATITADTSSNTAYLQLSTLTSEDTAVYYCARYYSSYLPFVYWGQGTLVTASA VL: DVVMTQTPLSLSVSLGDQASISCRSSQSIIYSNRHTYLHWYLQKPGQSPKLLIFQLSNRFSGVPDRFSGSGSGTDFTLKINRVEAEDLGVYFCSQSTHLPYTFGSGTKLEIKR" readout_name=kon unit="M⁻¹ s⁻¹" reported_result=448000
binder="Mutation 1-28 (antibody, V domains shown, built as for Mutation 1) VH: EVQLQQSGAELVKPGASVKLSCTASGFNLKDYFMHWMKQRTEQGLDWIGRIDPEDAETKYAPEFQGKATITADTSSNTAYLQLSTLTSEDTAVYYCARYYSSYLPFVYWGQGTLVTASA VL: DVVMTQTPLSLSVSLGDQASISCRSSQSLIYSNRHTYLHWYLQKPGQSPKLLIFQLSNRFSGVPDRFSGSGSGTDFTLKINRVEAEDLGVYFCSQSTHLPFTFGSGTKLEIKR" readout_name=kon unit="M⁻¹ s⁻¹" reported_result=536000

q: Entry under review: Mutation 1-13 (antibody, V domains shown, built as for Mutation 1) VH: EVQLQQSGAELVKPGASVKLSCTASGFNLKDYYMHWMKQRTEQGLDWIGRIDPEDAETRYAPEFQGKATITADTSSNTAYLQLSTLTSEDTAVYYCARYYSSYVPFVYWGQGTLVTASA VL: DVVMTQTPLSLSVSLGDQASISCRSSQSLIYSNRHTYLHWYLQKPGQSPKLLIFQVSNRFSGVPDRFSGSGSGTDFTLKINRVEAEDLGVYFCSQSTHLPFTFGSGTKLEIKR . Reported kon?
a: 311000
